Provenance of the data: PubChem BioAssay AID1159580

METHOD DESCRIPTION: chemical genetic growth profiling, strain panel (AID 1159580);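 note: tested at 20 µM; growth read once vehicle control cultures reached saturation at 30 °C; 1 = growth at the plate median or of vehicle wells; lower values mean less growth of the strain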
CONDITION CONTEXT: S. cerevisiae deletion strains, growth OD, locus YPL031C, strain PHO85, stronger effect = lower value
The whole screen tested about 5,500 compounds, of which about 2,000 (36%) were called active. Roughly 18% stayed inconclusive and do not appear here. This is one part of the list.
Label True when normalized growth is strictly below 0.9; at or above that, label False.

COMPOUND	ASSIGNED CATEGORY
CCC(C)c1ccccc1NC(=O)c1cc2cccc([N+](=O)[O-])c2[nH]1 (stereo not given)	True

// query Check if normalized growth falls below 0.9 for `CC1=CC(=O)C(CCOCCC2=CC(=O)C(C)=CC2=O)=CC1=O` .
// result True

// query Check if normalized growth falls below 0.9 for `NCCCN=c1ccc2c3c1c(O)c1c(O)ccc(=O)c1c3[nH]n2CCNCCO` .
// result False

// query Check if normalized growth falls below 0.9 for `O=[N+]([O-])c1cc(C(F)(F)F)ccc1-n1ccc(-c2cccs2)n1` .
// result True

// query Check if normalized growth falls below 0.9 for `C=CC(=O)N1CCc2cc([N+](=O)[O-])ccc21` .
// result True

---

METHOD DESCRIPTION: chemical genetic growth profiling, strain panel (AID 1159580)
CONDITION CONTEXT: S. cerevisiae deletion strains, growth OD, locus YDR001C, strain nth1, stronger effect = lower value
Among all 5,500 compounds or so, about 2,000 (36%) were called active. Roughly 18% stayed inconclusive and do not appear here. This is one part of the list.
MEASURED METRIC: normalized growth
Form: value (number only, do not type unit).

Solved entries (count: 4):
COMPOUND	MEASURED METRIC	RECORDED RESULT
CC1(C)C2CC[C@]3(C)C(C(=O)C=C4[C@@H]5C[C@@](C)(C(=O)O)CC[C@]5(C)CC[C@]43C)[C@@]2(C)CC[C@@H]1O (some centres not stated)	normalized growth	1.01
COc1ccc2c(c1)OC[C@@H](Cc1ccc(OC)c(OC)c1)[C@H]2O	normalized growth	1
CN=C(NC#N)NCCSCc1nc[nH]c1C	normalized growth	1
CN=C(NC#N)NCCSCc1nc(N=C(N)N)cs1	normalized growth	0.978

// query Annotate the compound `CC[C@H]1OC(=O)C[C@@H](O)[C@H](C)[C@@H](O[C@@H]2O[C@H](C)[C@@H](O[C@H]3C[C@@](C)(O)[C@@H](O)[C@H](C)O3)[C@H](N(C)C)[C@H]2O)[C@@H](CC=O)C[C@@H](C)C(=O)/C=C/C(C)=C/[C@@H]1CO[C@@H]1O[C@H](C)[C@@H](O)[C@@H](OC)[C@H]1OC` with its measured normalized growth.
// result 0.997

// query Annotate the compound `C=CC1=C(C(=O)O)N2C(=O)[C@@H](NC(=O)/C(=N/O)c3csc(N)n3)[C@H]2SC1` with its measured normalized growth.
// result 1.02

// query Annotate the compound `NC/C=C/C(=O)O` with its measured normalized growth.
// result 0.987

// query Annotate the compound COc1cccc2c1CCC1CC(=O)CCC21C (configuration not stated) with its measured normalized growth.
// result 0.984

// query Annotate the compound CN1CCCC(n2nc(Cc3ccc(Cl)cc3)c3ccccc3c2=O)CC1 (configuration not stated) with its measured normalized growth.
// result 1

// query Annotate the compound COC(=O)[C@@H]1C(O)CC[C@H]2CN3CCc4c([nH]c5ccccc45)[C@@H]3C[C@@H]21 (some centres not stated) with its measured normalized growth.
// result 1.02

// query Annotate the compound CC1(C)C2CC[C@]3(C)C(C(=O)C=C4[C@H]5C[C@@](C)(C(=O)O)CC[C@]5(C)CC[C@]43C)[C@@]2(C)CC[C@@H]1O (some centres not stated) with its measured normalized growth.
// result 1.02

// query Annotate the compound `CC(C)[N+](C)(CCOC(=O)C1c2ccccc2Oc2ccccc21)C(C)C` with its measured normalized growth.
// result 0.996

---

METHOD DESCRIPTION: chemical genetic growth profiling, strain panel (AID 1159580)
CONDITION CONTEXT: S. cerevisiae deletion strains, growth OD, locus YDL134C, strain PPH21, stronger effect = lower value
The whole screen tested about 5,500 compounds, of which about 2,000 (36%) were called active. Roughly 18% stayed inconclusive and do not appear here. The list shows a part of the results.
MEASURED METRIC: normalized growth
Form: value (number only, do not type unit).

Solved entries (count: 3):
COMPOUND	RECORDED RESULT
CCc1cccc(C)c1N(C(=O)CCl)C(C)COC (centres undefined)	1.01
O=c1ccc2ccccc2o1	1.03
CNC1(C)C2CCC(C2)C1(C)C (centres undefined)	0.989

Lab note: next compound to report on.
// query Annotate the compound `O=C(O)CSCCOc1ccccc1` with its measured normalized growth.
// result 1.03

---

METHOD DESCRIPTION: chemical genetic growth profiling, strain panel (AID 1159580);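 note: tested at 20 µM; growth read once vehicle control cultures reached saturation at 30 °C; 1 = growth at the plate median or of vehicle wells; lower values mean less growth of the strain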
CONDITION CONTEXT: S. cerevisiae deletion strains, growth OD, locus YPR119W, strain clb2
Out of some 5,500 compounds screened, about 2,000 (36%) were called active. About 18% were inconclusive and are not listed. Cut-off read from the data, not from the text of the source: active = normalized growth mostly below about 0.91 (no sharp cut-off); inconclusive = no clear call, values can overlap the other calls; inactive = mostly above about 0.92. This is one part of the list.
Please reply with one of these outcomes: active, inactive

MOLECULE	ASSIGNED CATEGORY
S=C=NCc1ccccc1	active
COc1cc(OC)c2c(c1)O[C@H](c1ccc(OC)c(OC)c1)[C@@H](O)C2	inactive
O=C(O)c1cc(=O)c2ccc(Cl)cc2[nH]1	inactive
COc1cc(OC)c2c(c1)OC(c1ccc(OC)c(OC)c1)C(O)C2 (stereo not given)	inactive
COc1c2c(c(CC=C(C)C)c3oc(=O)c(-c4ccc(O)cc4)c(O)c13)OC(C)(C)C=C2	active
NC[C@@H]1O[C@H](O[C@@H]2[C@@H](CO)OC(O[C@@H]3[C@@H](O)[C@H](N)C[C@H](N)[C@H]3OC3O[C@H](CN)[C@@H](O)[C@H](O)[C@H]3N)[C@@H]2O)[C@H](N)[C@@H](O)[C@@H]1O (stereo not given in full)	inactive

// query Could you kindly confirm the outcome this assay logged for `O=C(O)c1cc(=O)c2cc(Cl)ccc2[nH]1` ?
// result inactive

// query Could you kindly confirm the outcome this assay logged for `COC(=O)c1c(Cl)c(Cl)c(C(=O)OC)c(Cl)c1Cl` ?
// result inactive

// query Could you kindly confirm the outcome this assay logged for `CN=C(NC#N)NCCSCc1nc[nH]c1C` ?
// result inactive

// query Could you kindly confirm the outcome this assay logged for OCC(O)Cc1ccc2c(c1)OCO2 (stereo not given) ?
// result inactive

---

METHOD DESCRIPTION: chemical genetic growth profiling, strain panel (AID 1159580);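 note: tested at 20 µM; growth read once vehicle control cultures reached saturation at 30 °C; 1 = growth at the plate median or of vehicle wells; lower values mean less growth of the strain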
CONDITION CONTEXT: S. cerevisiae deletion strains, growth OD, locus YJL168C, strain set2, stronger effect = lower value
About 2,000 (36%) of roughly 5,500 compounds were called active. About 18% were inconclusive and are not listed. Some of the results follow.
MEASURED METRIC: normalized growth
Form: value (number only, do not type unit).

COMPOUND	RECORDED RESULT
C=C1CC[C@H](O)C/C1=C/C=C1\CCC[C@]2(C)C([C@H](C)/C=C/[C@H](C)C(C)C)CC[C@@H]12 (some centres undefined)	0.991

// query Annotate the compound `COc1ccc2c(c1)OC[C@@H](Cc1ccc(OC)c(OC)c1)[C@@H]2O` with its measured normalized growth.
// result 0.99

// query Annotate the compound COc1cccc2c1CCC1CC(=O)CCC21C (centres undefined) with its measured normalized growth.
// result 0.963

// query Annotate the compound `Cc1ccc2c(c1)CC[C@H]1CC(=O)CC[C@]21C` with its measured normalized growth.
// result 0.971

---

# maps each entry to its normalized growth
METHOD DESCRIPTION: chemical genetic growth profiling, strain panel (AID 1159580);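 note: tested at 20 µM; growth read once vehicle control cultures reached saturation at 30 °C; 1 = growth at the plate median or of vehicle wells; lower values mean less growth of the strain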
CONDITION CONTEXT: S. cerevisiae deletion strains, growth OD, strain wtn01, stronger effect = lower value
In all, about 5,500 compounds went through this assay and about 2,000 (36%) were called active. Roughly 18% stayed inconclusive and do not appear here. The list shows a part of the results.
Form: value (number only, do not type unit).

COMPOUND	MEASURED METRIC	RECORDED RESULT
CC(C)N(C(=O)CCl)c1ccccc1	normalized growth	1.02
CN1Cc2c(ccc3c2OCO3)C2C(O)Cc3cc4c(cc3C21)OCO4 (stereo not drawn)	normalized growth	1
COC(=O)[C@@H]1C(O)CC[C@H]2CN3CCc4c([nH]c5ccccc45)[C@@H]3C[C@@H]21 (stereo partly drawn)	normalized growth	0.995
C=CC1=C(C(=O)O)N2C(=O)[C@@H](NC(=O)/C(=N/O)c3csc(N)n3)[C@H]2SC1	normalized growth	0.993

// query Annotate the compound `NC(=O)N1c2ccccc2CC(=O)c2ccccc21` with its measured normalized growth.
// result 0.999

// query Annotate the compound `OCCN(CCO)c1nc(N2CCCCC2)c2nc(N(CCO)CCO)nc(N3CCCCC3)c2n1` with its measured normalized growth.
// result 0.994

// query Annotate the compound `CCc1nc(N)nc(N)c1-c1ccc(Cl)cc1` with its measured normalized growth.
// result 0.975

// query Annotate the compound `CC(C)[N+](C)(CCOC(=O)C1c2ccccc2Oc2ccccc21)C(C)C` with its measured normalized growth.
// result 1.01
